STUDY SYSTEM: PARP-1 F2 W157I (Homo sapiens, UniProt P09874 103-214, W157I)
Sequence (P09874 103-214 W157I): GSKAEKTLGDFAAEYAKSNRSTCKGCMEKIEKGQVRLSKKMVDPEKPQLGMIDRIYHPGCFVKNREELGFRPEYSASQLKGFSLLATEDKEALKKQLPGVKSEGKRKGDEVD
MEASUREMENT PROTOCOL: fluorescence anisotropy; 25 mM NaCl, one-site fit; 50 mM Tris-HCl pH 7.0, 150 uM ZnSO4, 4 mM DTT, 25 C; NaCl 0-200 mM (T2, as in cof; 10 nM DNA) or 25 mM (T3 mutants; 25 nM DNA)
CONDITIONS USED: protein: recombinant; label: fluorescein-dT at T8; single-chain dumbbell, 18 bp with central nick, two tetraloops
MEASUREMENT LABEL: Kd (µM)
Your answer should be a plain number; it is taken to be in µM.

For record CGGTCGATCGTAAGATCGACCGGCGCTGGAGCTTGCTCCAGCGC (structured_DNA, 5'-phosphate) [44-nt nicked dumbbell, 5'-phosphate, fluorescein-dT] the listed Kd is 4.93
